Cited source: ChEMBL document CHEMBL3045230

- Test system: Escherichia coli
- TEST_SUMMARY: Antimicrobial activity against Escherichia coli ATCC 10536 assessed as growth inhibition after 24 hr by broth dilution assay method
- Type: functional
- CONDITION_SET: ATCC 10536, 24 h
RECORDED_ENDPOINT: MIC (µg/mL)
Give just the numeric value; µg/mL need not be written.

Would you please look over these solved cases?
* CC(C)c1csc(-c2nnc(SCc3nnc(CCl)o3)n2-c2ccccc2)n1 | 16
* CC(=O)NNC(=O)CSc1nnc(-c2nc(C(C)C)cs2)n1-c1ccccc1 | 62.5

Turning to the following compound.
Provide measured MIC value, entry: C/C(=N\NC(=O)CSc1nnc(-c2nc(C(C)C)cs2)n1-c1ccccc1)c1ccc([N+](=O)[O-])cc1
62.5

----------
- Tested on: Pseudomonas aeruginosa
- TEST_SUMMARY: Antimicrobial activity against Pseudomonas aeruginosa ATCC 10145 assessed as growth inhibition after 24 hr by broth dilution assay method
- Assay type: functional
- CONDITION_SET: ATCC 10145, 24 h
Reported MIC by item:
Give just the numeric value; µg/mL need not be written.

- CC(C)c1csc(-c2nnc(SCc3nnc(-c4ccc([N+](=O)[O-])cc4)o3)n2-c2ccccc2)n1: 31.2
- C/C(=N\NC(=O)CSc1nnc(-c2nc(C(C)C)cs2)n1-c1ccccc1)c1ccc(Cl)cc1: 31.2
- CC(C)c1csc(-c2nnc(SCc3nnc(CCl)o3)n2-c2ccccc2)n1: 16
- COc1cc(/C=N/NC(=O)CSc2nnc(-c3nc(C(C)C)cs3)n2-c2ccccc2)ccc1O: 16
- CC(C)c1csc(-c2nnc(SCc3nnc(-c4ccccc4)o3)n2-c2ccccc2)n1: 31.2
- CC(=O)NNC(=O)CSc1nnc(-c2nc(C(C)C)cs2)n1-c1ccccc1: 125

Provide measured MIC value, entry: C/C(=N\NC(=O)CSc1nnc(-c2nc(C(C)C)cs2)n1-c1ccccc1)c1ccc(O)cc1
16

----------
- System: Escherichia coli
- TEST_SUMMARY: Antimicrobial activity against Escherichia coli ATCC 10536 assessed as growth inhibition after 24 hr by broth dilution assay method
- Type: functional
- CONDITION_SET: ATCC 10536, 24 h
Reported MIC by item:
Give just the numeric value; µg/mL need not be written.

Would you please look over these solved cases?
* C/C(=N\NC(=O)CSc1nnc(-c2nc(C(C)C)cs2)n1-c1ccccc1)c1ccc(Br)cc1 | 62.5
* CC(C)c1csc(-c2nnc(SCC(=O)N/N=C/c3cccc([N+](=O)[O-])c3)n2-c2ccccc2)n1 | 31.2
* CCOC(=O)CSc1nnc(-c2nc(C(C)C)cs2)n1-c1ccccc1 | 125
* CC(C)c1csc(-c2nnc(SCC(=O)N/N=C/c3ccc(O)cc3)n2-c2ccccc2)n1 | 125
* CC(C)c1csc(-c2nnc(SCc3nnc(-c4ccc(O)cc4)o3)n2-c2ccccc2)n1 | 62.5

Provide measured MIC value, entry: Cc1ccc(-c2nnc(CSc3nnc(-c4nc(C(C)C)cs4)n3-c3ccccc3)o2)cc1
31.2

Provide measured MIC value, entry: CC(C)c1csc(-c2nnc(SCc3nnc(-c4ccccc4)o3)n2-c2ccccc2)n1
125

----------
- System: Pseudomonas aeruginosa
- TEST_SUMMARY: Antimicrobial activity against Pseudomonas aeruginosa ATCC 10145 assessed as growth inhibition after 24 hr by broth dilution assay method
- Format: functional
- CONDITION_SET: ATCC 10145, 24 h
RECORDED_ENDPOINT: MIC (µg/mL)
Give just the numeric value; µg/mL need not be written.

Would you please look over these solved cases?
- CC(C)c1csc(-c2nnc(SCC(=O)N/N=C/c3ccc(Cl)cc3)n2-c2ccccc2)n1: 62.5
- CC(C)c1csc(-c2nnc(SCc3nnc(-c4ccc(Cl)cc4)o3)n2-c2ccccc2)n1: 62.5
- CC(C)c1csc(-c2nnc(SCC(=O)N/N=C/c3ccc(O)cc3)n2-c2ccccc2)n1: 62.5
- CC(C)c1csc(-c2nnc(SCC(=O)N/N=C/c3cccc([N+](=O)[O-])c3)n2-c2ccccc2)n1: 62.5

Turning to the following compound.
Provide measured MIC value, entry: C/C(=N\NC(=O)CSc1nnc(-c2nc(C(C)C)cs2)n1-c1ccccc1)c1ccc(Br)cc1
125
